Sourced from the NIST ThermoML archive (doi:10.1021/je4001894)

# method: activity coefficient (dimensionless); of the first substance listed, at infinite dilution; xn = mol fraction of the nth substance listed
# setup-conditions: 333.15 K; 101 kPa; Liquid; Chromatography; x1 = 0
Reported activity coefficient values follow for various compounds
Write the value as a bare number.

compound	activity coefficient
C1COCCO1 [1,4-dioxane] + CCCC[N+]1(C)CCCC1.O=S(=O)([N-]S(=O)(=O)C(F)(F)F)C(F)(F)F	0.72

Lab note: CC(C)CC(C)(C)C [2,2,4-trimethylpentane] + CCCC[N+]1(C)CCCC1.O=S(=O)([N-]S(=O)(=O)C(F)(F)F)C(F)(F)F gave activity coefficient of 17.9

get_value(item= CCN(CC)CC [triethylamine] + CCCC[N+]1(C)CCCC1.O=S(=O)([N-]S(=O)(=O)C(F)(F)F)C(F)(F)F , readout=activity coefficient) returns 7.07

Sample CCCCCC [hexane] + CCC[N+]1(C)CCCC1.O=S(=O)([N-]S(=O)(=O)C(F)(F)F)C(F)(F)F ; activity coefficient observed: 15

The recorded activity coefficient for entry CCOCC [diethyl ether] + CCC[N+]1(C)CCCC1.O=S(=O)([N-]S(=O)(=O)C(F)(F)F)C(F)(F)F equals 2.7

response.value for CC(C)OC(C)C [diisopropyl ether] + CCCC[N+]1(C)CCCC1.O=S(=O)([N-]S(=O)(=O)C(F)(F)F)C(F)(F)F (field: activity coefficient) = 5.28

// sample C1CCCCCC1 [cycloheptane] + CCCC[N+]1(C)CCCC1.O=S(=O)([N-]S(=O)(=O)C(F)(F)F)C(F)(F)F , its activity coefficient was 32

* * *

# method: activity coefficient (dimensionless); of the first substance listed, at infinite dilution; xn = mol fraction of the nth substance listed
# setup-conditions: 333.15 K; 101 kPa; Liquid; Chromatography; x1 = 0
The label is Criterion met for activity coefficient below 2 and Criterion not met for activity coefficient equal to or exceeding 2.

Past entries and their recorded results:
compound	cat
CCC[N+](=O)[O-] [1-nitropropane] + CCCC[N+]1(C)CCCC1.O=S(=O)([N-]S(=O)(=O)C(F)(F)F)C(F)(F)F	Criterion met
c1ccsc1 [thiophene] + CCCC[N+]1(C)CCCC1.O=S(=O)([N-]S(=O)(=O)C(F)(F)F)C(F)(F)F	Criterion met
CCCCCCCCCCC [undecane] + CCCC[N+]1(C)CCCC1.O=S(=O)([N-]S(=O)(=O)C(F)(F)F)C(F)(F)F	Criterion not met

Is activity coefficient of CC(C)CO [2-methyl-1-propanol] + CCCC[N+]1(C)CCCC1.O=S(=O)([N-]S(=O)(=O)C(F)(F)F)C(F)(F)F strictly below 2?
Criterion not met

Dear colleague, could you confirm whether activity coefficient of C#CCCCC [1-hexyne] + CCC[N+]1(C)CCCC1.O=S(=O)([N-]S(=O)(=O)C(F)(F)F)C(F)(F)F falls below 2? Thanks.
Criterion not met

Determine if CC1CCCCC1 [methylcyclohexane] + CCC[N+]1(C)CCCC1.O=S(=O)([N-]S(=O)(=O)C(F)(F)F)C(F)(F)F shows activity coefficient strictly lower than 2.
Criterion not met

* * *

# method: activity coefficient (dimensionless); of the first substance listed, at infinite dilution; xn = mol fraction of the nth substance listed
# setup-conditions: 343.15 K; 101 kPa; Liquid; Chromatography; x1 = 0
Quick list: activity coefficient per entry.
Simply state the number, no unit and no words.

compound	activity coefficient
CCCCO [butan-1-ol] + CCC[N+]1(C)CCCC1.O=S(=O)([N-]S(=O)(=O)C(F)(F)F)C(F)(F)F	2.27
C1CCCCCC1 [cycloheptane] + CCC[N+]1(C)CCCC1.O=S(=O)([N-]S(=O)(=O)C(F)(F)F)C(F)(F)F	54.7
CC1CCCCC1 [methylcyclohexane] + CCCC[N+]1(C)CCCC1.O=S(=O)([N-]S(=O)(=O)C(F)(F)F)C(F)(F)F	10.1
CCC(=O)CC [pentan-3-one] + CCCC[N+]1(C)CCCC1.O=S(=O)([N-]S(=O)(=O)C(F)(F)F)C(F)(F)F	0.77
CCCO [propan-1-ol] + CCCC[N+]1(C)CCCC1.O=S(=O)([N-]S(=O)(=O)C(F)(F)F)C(F)(F)F	1.68

Entry CCCCCCCCCCCC [dodecane] + CCCC[N+]1(C)CCCC1.O=S(=O)([N-]S(=O)(=O)C(F)(F)F)C(F)(F)F ; activity coefficient = 83

Per the record, CCN(CC)CC [triethylamine] + CCCC[N+]1(C)CCCC1.O=S(=O)([N-]S(=O)(=O)C(F)(F)F)C(F)(F)F has activity coefficient of 7.09

Notebook: CCCCCCC [heptane] + CCC[N+]1(C)CCCC1.O=S(=O)([N-]S(=O)(=O)C(F)(F)F)C(F)(F)F , activity coefficient read as 22.3

# activity coefficient of ClCCl [dichloromethane] + CCCC[N+]1(C)CCCC1.O=S(=O)([N-]S(=O)(=O)C(F)(F)F)C(F)(F)F = 0.73

Entry CCCCCCCCCC [decane] + CCCC[N+]1(C)CCCC1.O=S(=O)([N-]S(=O)(=O)C(F)(F)F)C(F)(F)F , activity coefficient reported as 44.2

C[N+](=O)[O-] [nitromethane] + CCCC[N+]1(C)CCCC1.O=S(=O)([N-]S(=O)(=O)C(F)(F)F)C(F)(F)F has a reported activity coefficient of 0.57

Given item ClC(Cl)(Cl)Cl [tetrachloromethane] + CCC[N+]1(C)CCCC1.O=S(=O)([N-]S(=O)(=O)C(F)(F)F)C(F)(F)F , the value recorded as its activity coefficient is 2.64

* * *

# method: activity coefficient (dimensionless); of the first substance listed, at infinite dilution; xn = mol fraction of the nth substance listed
# setup-conditions: 333.15 K; 101 kPa; Liquid; Chromatography; x1 = 0
property-name: activity coefficient

molecule	activity coefficient
Cc1cccc(C)c1 [1,3-dimethylbenzene] + CCC[N+]1(C)CCCC1.O=S(=O)([N-]S(=O)(=O)C(F)(F)F)C(F)(F)F	1.99
CCC(C)CC [3-methylpentane] + CCCC[N+]1(C)CCCC1.O=S(=O)([N-]S(=O)(=O)C(F)(F)F)C(F)(F)F	11.9
ClCCl [dichloromethane] + CCC[N+]1(C)CCCC1.O=S(=O)([N-]S(=O)(=O)C(F)(F)F)C(F)(F)F	0.72
c1ccccc1 [benzene] + CCC[N+]1(C)CCCC1.O=S(=O)([N-]S(=O)(=O)C(F)(F)F)C(F)(F)F	1.01

The recorded activity coefficient for entry CCO [ethanol] + CCCC[N+]1(C)CCCC1.O=S(=O)([N-]S(=O)(=O)C(F)(F)F)C(F)(F)F equals 1.57

// sample CCC(C)=O [butanone] + CCCC[N+]1(C)CCCC1.O=S(=O)([N-]S(=O)(=O)C(F)(F)F)C(F)(F)F , its activity coefficient was 0.5

The molecule listed as C1CCCCC1 [cyclohexane] + CCC[N+]1(C)CCCC1.O=S(=O)([N-]S(=O)(=O)C(F)(F)F)C(F)(F)F has a reported activity coefficient of 9.53

activity coefficient recorded for this molecule, C[N+](=O)[O-] [nitromethane] + CCCC[N+]1(C)CCCC1.O=S(=O)([N-]S(=O)(=O)C(F)(F)F)C(F)(F)F , is 0.58

CC1CCCC1 [methylcyclopentane] + CCCC[N+]1(C)CCCC1.O=S(=O)([N-]S(=O)(=O)C(F)(F)F)C(F)(F)F has a reported activity coefficient of 8.24

Documented activity coefficient of CC(C)OC(C)C [diisopropyl ether] + CCC[N+]1(C)CCCC1.O=S(=O)([N-]S(=O)(=O)C(F)(F)F)C(F)(F)F : 5.75

Item: ClC(Cl)Cl [trichloromethane] + CCCC[N+]1(C)CCCC1.O=S(=O)([N-]S(=O)(=O)C(F)(F)F)C(F)(F)F | activity coefficient: 0.86

Form field activity coefficient, entry CCCCCC [hexane] + CCCC[N+]1(C)CCCC1.O=S(=O)([N-]S(=O)(=O)C(F)(F)F)C(F)(F)F : 13.6

Value of activity coefficient reported for the molecule CC(C)CO [2-methyl-1-propanol] + CCC[N+]1(C)CCCC1.O=S(=O)([N-]S(=O)(=O)C(F)(F)F)C(F)(F)F is 2.29

For reference, reported activity coefficient for Cc1cccc(C)c1 [1,3-dimethylbenzene] + CCCC[N+]1(C)CCCC1.O=S(=O)([N-]S(=O)(=O)C(F)(F)F)C(F)(F)F stands at 1.8

* * *

# method: activity coefficient (dimensionless); of the first substance listed, at infinite dilution; xn = mol fraction of the nth substance listed
# setup-conditions: 333.15 K; 101 kPa; Liquid; Chromatography; x1 = 0
property-name: activity coefficient

Notebook: CC1CCCCC1 [methylcyclohexane] + CCCC[N+]1(C)CCCC1.O=S(=O)([N-]S(=O)(=O)C(F)(F)F)C(F)(F)F , activity coefficient read as 10.7

Notebook: C1CCCCCC1 [cycloheptane] + CCC[N+]1(C)CCCC1.O=S(=O)([N-]S(=O)(=O)C(F)(F)F)C(F)(F)F , activity coefficient read as 43

Noted for CCCC(C)=O [pentan-2-one] + CCC[N+]1(C)CCCC1.O=S(=O)([N-]S(=O)(=O)C(F)(F)F)C(F)(F)F : its activity coefficient reads 0.88

Kindly note the recorded activity coefficient for Cc1ccccc1 [toluene] + CCCC[N+]1(C)CCCC1.O=S(=O)([N-]S(=O)(=O)C(F)(F)F)C(F)(F)F , which is 1.27
